Species on record: Rattus norvegicus
Procedure summary: DrugMatrix - Regimen: Daily Repeat
Format: toxicity, organism-based, Sprague-Dawley
Parameters: regimen Daily Repeat, gender Male, age 6-8 weeks
Test parameters: in vivo, po, 0 mg/kg, […], tissue Blood, route oral GAVAGE, dose level Control, time 14 day
Experimental endpoint: ABSOLUTE LYMPHOCYTE (cells/µL)
# number only, unit cells/µL dropped from output

Look up and state reported ABSOLUTE LYMPHOCYTE for C=CCN
12200

---

Species: Rattus norvegicus
Procedure summary: DrugMatrix - Regimen: Daily Repeat
Type: toxicity, organism-based, Sprague-Dawley
Set-up: regimen Daily Repeat, gender Male, age 6-8 weeks
Test parameters: in vivo, po, 10 mg/kg, 120 h, tissue Plasma, route oral GAVAGE, dose level Low, time 5 day, vehicle .5 % CMC
Experimental endpoint: CREATININE (mg/dL)
# number only, unit mg/dL dropped from output

Here's what some known entries look like.
Look up and state reported CREATININE for NS(=O)(=O)c1cc2c(cc1Cl)NCNS2(=O)=O [HYDROCHLOROTHIAZIDE]
0.2

Look up and state reported CREATININE for CC(=O)O[C@]1(C(C)=O)CC[C@H]2[C@@H]3C=C(Cl)C4=CC(=O)CC[C@]4(C)[C@H]3CC[C@@]21C [CHLORMADINONE ACETATE]
0.13

Look up and state reported CREATININE for COc1c(C)c2c(c(O)c1C/C=C(\C)CCC(=O)OCCN1CCOCC1)C(=O)OC2 [MYCOPHENOLATE MOFETIL]
0.2

Further cases:
Look up and state reported CREATININE for O=C1CN=C(c2ccccc2)c2cc([N+](=O)[O-])ccc2N1
0.2

Where do these numbers come from? They come from ChEMBL document CHEMBL3885881.
